tested on: S. typhimurium/E. coli reverse mutation, colony counts; test: Bacterial reverse mutation test (aka Ames test) summary data;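 note: His-minus Salmonella and trp-minus E. coli WP2 uvrA pKM101 with or without liver S9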
Records with an inconclusive call do not appear. Activity calls are given as the source filed them. The rule behind the calls is not given here.
Possible outcomes: Yes for active, No for inactive

- Molecule: "CCC1CO1 (stereo not drawn)"
  Category: "Yes"
- Molecule: "[CH3][Sn]([CH3])([Cl])[Cl]"
  Category: "No"
- Molecule: "COC(=O)C(c1ccccc1)C1CCCCN1 (stereo not drawn)"
  Category: "No"
- Molecule: "C#C[C@]1(O)CC[C@H]2[C@@H]3CCc4cc(O)ccc4[C@H]3CC[C@@]21C"
  Category: "No"
- Molecule: "Cc1ccc(OCC2CO2)cc1 (stereo not drawn)"
  Category: "Yes"
- Molecule: "O=S1(=O)CC=CC1"
  Category: "No"
- Molecule: "CCOC(N)=O"
  Category: "Yes"
- Molecule: "CCCCOCCO"
  Category: "No"

====

tested on: S. typhimurium/E. coli reverse mutation, colony counts; assay: Bacterial reverse mutation test (aka Ames test) summary data;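 note: His-minus Salmonella and trp-minus E. coli WP2 uvrA pKM101 with or without liver S9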
Inconclusive results are not listed. The source made the active and inactive calls. No rule for the calls is given here.
Possible outcomes: Yes = active, No = inactive

- Compound: "O=C(O)CCCCC1CCSS1 (centres undefined)"
  Test system: "S. typhimurium/E. coli reverse mutation, colony counts"
  Category: "No"
- Compound: "CCN(CC)c1ccc2c(C)cc(=O)oc2c1"
  Test system: "S. typhimurium/E. coli reverse mutation, colony counts"
  Category: "No"
- Compound: "BrCCBr"
  Test system: "S. typhimurium/E. coli reverse mutation, colony counts"
  Category: "Yes"
- Compound: "ClC(Cl)=C(Cl)C(Cl)=C(Cl)Cl"
  Test system: "S. typhimurium/E. coli reverse mutation, colony counts"
  Category: "No"
- Compound: "Cc1c(N(C)C)c(=O)n(-c2ccccc2)n1C"
  Test system: "S. typhimurium/E. coli reverse mutation, colony counts"
  Category: "Yes"
- Compound: "CN(C)c1ccc(C2(c3ccc(N(C)C)cc3)OC(=O)c3cc(N(C)C)ccc32)cc1"
  Test system: "S. typhimurium/E. coli reverse mutation, colony counts"
  Category: "No"
- Compound: "CC(C)[N+](C)(CCOC(=O)C1c2ccccc2Oc2ccccc21)C(C)C"
  Test system: "S. typhimurium/E. coli reverse mutation, colony counts"
  Category: "No"
- Compound: "CC(=O)Nc1ccc(C(=O)CCl)cc1"
  Test system: "S. typhimurium/E. coli reverse mutation, colony counts"
  Category: "Yes"
- Compound: "Cc1ccc(C(=O)O)cc1[N+](=O)[O-]"
  Test system: "S. typhimurium/E. coli reverse mutation, colony counts"
  Category: "Yes"
- Compound: "Oc1ccc([C@H]2COc3cc(O)ccc3C2)cc1"
  Test system: "S. typhimurium/E. coli reverse mutation, colony counts"
  Category: "No"
- Compound: "O=c1[nH]c(=O)n(Cl)c(=O)n1Cl"
  Test system: "S. typhimurium/E. coli reverse mutation, colony counts"
  Category: "No"
- Compound: "N=C1N=C(N)c2ccccc21"
  Test system: "S. typhimurium/E. coli reverse mutation, colony counts"
  Category: "Yes"
- Compound: "CC(CN1c2ccccc2Sc2ccccc21)N(C)C (centres undefined)"
  Test system: "S. typhimurium/E. coli reverse mutation, colony counts"
  Category: "No"
- Compound: "Nc1ncn[nH]1"
  Test system: "S. typhimurium/E. coli reverse mutation, colony counts"
  Category: "No"

====

test system: S. typhimurium/E. coli reverse mutation, colony counts; assay: Bacterial reverse mutation test (aka Ames test) summary data;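 note: His-minus Salmonella and trp-minus E. coli WP2 uvrA pKM101 with or without liver S9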
Inconclusive results are not listed. The source made the active and inactive calls. How the calls were made is not given here.
Possible outcomes: active, inactive

- Compound: "CCOc1ccc2nc(N)sc2c1"
  Category: "active"
- Compound: "Nc1ccc(Oc2ccc(N)cc2)cc1"
  Category: "active"
- Compound: "CC1CC(=O)O1 (centres undefined)"
  Category: "active"
- Compound: "CCC1(c2ccccc2)C(=O)NC(=O)NC1=O"
  Category: "active"
- Compound: "CC(O)CN(C)C (centres undefined)"
  Category: "inactive"
- Compound: "ClCCOCOCCCl"
  Category: "active"
- Compound: "Cc1ccc([N+](=O)[O-])c(C(=O)O)c1"
  Category: "active"
- Compound: "CC(=O)Nc1cccc(C)c1"
  Category: "inactive"
- Compound: "COc1ccc(C2=N[C@H](c3ccc(Cl)cc3)[C@H](c3ccc(Cl)cc3)N2C(=O)N2CCNC(=O)C2)c(OC(C)C)c1"
  Category: "inactive"
- Compound: "CNC(C)Cc1ccccc1 (centres undefined)"
  Category: "inactive"
- Compound: "C[C@@H]1[C@H](O)[C@@H](C)/C=C/C=C/C=C/C=C/C=C/C=C/C=C/[C@H](O[C@@H]2O[C@H](C)[C@@H](O)[C@H](N)[C@@H]2O)C[C@@H]2O[C@](O)(C[C@@H](O)C[C@@H](O)[C@H](O)CC[C@@H](O)C[C@@H](O)CC(=O)O[C@H]1C)C[C@H](O)[C@H]2C(=O)O"
  Category: "inactive"
- Compound: "CNC(=O)c1ccccc1"
  Category: "inactive"
- Compound: "Oc1cccc2cccnc12"
  Category: "active"
- Compound: "CCCCCCc1ccc(O)cc1O"
  Category: "inactive"
- Compound: "Sc1ccccc1"
  Category: "inactive"
- Compound: "COc1ccccc1[N+](=O)[O-]"
  Category: "active"
- Compound: "ClC(Cl)(Cl)C1CO1 (centres undefined)"
  Category: "active"
- Compound: "Oc1ccccc1"
  Category: "inactive"
- Compound: "OCCNCCO"
  Category: "inactive"
- Compound: "CC[C@]12CCCN3CCc4c(n(c5ccccc45)[C@@](O)(C(=O)OC)C1)[C@@H]32"
  Category: "inactive"
- Compound: "CC(=O)C=Cc1ccco1"
  Category: "inactive"
- Compound: "c1ccc(OP(Oc2ccccc2)Oc2ccccc2)cc1"
  Category: "inactive"
- Compound: "Nc1ccc2c(c1)C(=O)c1ccccc1C2=O"
  Category: "active"
- Compound: "CC(C)(C)OOC(C)(C)C"
  Category: "inactive"
- Compound: "CCCCOC(=O)c1ccc(O)cc1"
  Category: "inactive"
- Compound: "CCCSC(=O)Cl"
  Category: "active"
- Compound: "N[C@H](Cc1ccccc1)C(=O)O"
  Category: "inactive"
- Compound: "O=C(c1ccccc1)C(O)c1ccccc1 (centres undefined)"
  Category: "active"
- Compound: "Nc1cc(Cl)cc(Cl)c1"
  Category: "inactive"

====

tested on: S. typhimurium/E. coli reverse mutation, colony counts; experiment: Bacterial reverse mutation test (aka Ames test) summary data;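 note: His-minus Salmonella and trp-minus E. coli WP2 uvrA pKM101 with or without liver S9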
Inconclusive results are not listed. The source made the active and inactive calls. The rule behind the calls is not given here.
Possible outcomes: class 1 for active, class 0 for inactive

- Molecule: "CC(C)[C@]12CC(=O)[C@H](C)[C@H]1C2"
  Test system: "S. typhimurium/E. coli reverse mutation, colony counts"
  Category: "class 0"
- Molecule: "ClC(Br)Br"
  Test system: "S. typhimurium/E. coli reverse mutation, colony counts"
  Category: "class 1"
- Molecule: "Cc1cc(O)c(C(C)(C)C)cc1Sc1cc(C(C)(C)C)c(O)cc1C"
  Test system: "S. typhimurium/E. coli reverse mutation, colony counts"
  Category: "class 0"
- Molecule: "c1ccc2cc(Nc3ccc(Nc4ccc5ccccc5c4)cc3)ccc2c1"
  Test system: "S. typhimurium/E. coli reverse mutation, colony counts"
  Category: "class 1"
- Molecule: "CCc1nc(N)nc(N)c1-c1ccc(Cl)cc1"
  Test system: "S. typhimurium/E. coli reverse mutation, colony counts"
  Category: "class 0"
- Molecule: "c1ccc2c(c1)ccc1ccccc12"
  Test system: "S. typhimurium/E. coli reverse mutation, colony counts"
  Category: "class 1"
- Molecule: "CCN(Cc1cccc(S(=O)(=O)[O-])c1)c1ccc(C(=C2C=CC(=[N+](C)C)C=C2)c2ccc(N(CC)Cc3cccc(S(=O)(=O)O)c3)cc2)cc1"
  Test system: "S. typhimurium/E. coli reverse mutation, colony counts"
  Category: "class 1"
- Molecule: "CCC(C)Nc1ccc(NC(C)CC)cc1 (stereo unspecified)"
  Test system: "S. typhimurium/E. coli reverse mutation, colony counts"
  Category: "class 0"
- Molecule: "CCCCC(C=O)CC (stereo unspecified)"
  Test system: "S. typhimurium/E. coli reverse mutation, colony counts"
  Category: "class 0"
- Molecule: "CCOC(=O)c1ccccc1C(=O)OCC"
  Test system: "S. typhimurium/E. coli reverse mutation, colony counts"
  Category: "class 0"
- Molecule: "C=C(C)C1CC=C(C)C(OC(C)=O)C1 (stereo unspecified)"
  Test system: "S. typhimurium/E. coli reverse mutation, colony counts"
  Category: "class 0"
- Molecule: "Nc1cc(S(=O)(=O)O)cc2cc(S(=O)(=O)O)c(N=Nc3ccc(-c4ccc(N=Nc5c(S(=O)(=O)O)cc6cc(S(=O)(=O)O)cc(N)c6c5O)cc4)cc3)c(O)c12"
  Test system: "S. typhimurium/E. coli reverse mutation, colony counts"
  Category: "class 0"
- Molecule: "Cc1ccc(S(=O)(=O)Oc2ccc(N=Nc3ccc(-c4ccc(N=Nc5c(O)ccc6cc(S(=O)(=O)O)cc(S(=O)(=O)O)c56)c(C)c4)cc3C)cc2)cc1"
  Test system: "S. typhimurium/E. coli reverse mutation, colony counts"
  Category: "class 1"
- Molecule: "O=S(O)c1ccc(Cl)cc1"
  Test system: "S. typhimurium/E. coli reverse mutation, colony counts"
  Category: "class 0"
- Molecule: "BrC(Br)Br"
  Test system: "S. typhimurium/E. coli reverse mutation, colony counts"
  Category: "class 1"
- Molecule: "CCCCCCCC(=O)Cl"
  Test system: "S. typhimurium/E. coli reverse mutation, colony counts"
  Category: "class 1"
- Molecule: "CCCCC/C=C\\C/C=C\\CCCCCCCC(=O)O"
  Test system: "S. typhimurium/E. coli reverse mutation, colony counts"
  Category: "class 0"
- Molecule: "O=[N+]([O-])c1cc(Cl)c(Cl)c(Cl)c1Cl"
  Test system: "S. typhimurium/E. coli reverse mutation, colony counts"
  Category: "class 0"
- Molecule: "Cc1cnc[nH]1"
  Test system: "S. typhimurium/E. coli reverse mutation, colony counts"
  Category: "class 0"
- Molecule: "O=C(O)c1cc(Cl)ccc1Cl"
  Test system: "S. typhimurium/E. coli reverse mutation, colony counts"
  Category: "class 0"
- Molecule: "COc1cc(-c2ccc(N=C=O)c(OC)c2)ccc1N=C=O"
  Test system: "S. typhimurium/E. coli reverse mutation, colony counts"
  Category: "class 1"
- Molecule: "CC1=C(/C=C/C(C)=C/C=C/C(C)=C\\C=O)C(C)(C)CCC1"
  Test system: "S. typhimurium/E. coli reverse mutation, colony counts"
  Category: "class 1"
- Molecule: "CCOCCOCC"
  Test system: "S. typhimurium/E. coli reverse mutation, colony counts"
  Category: "class 1"
- Molecule: "CC(N)C(=O)O (stereo unspecified)"
  Test system: "S. typhimurium/E. coli reverse mutation, colony counts"
  Category: "class 0"
- Molecule: "C=C(C)C(=O)OC(C)C"
  Test system: "S. typhimurium/E. coli reverse mutation, colony counts"
  Category: "class 0"
- Molecule: "C=CC(=O)NC(C)(C)CC(C)=O"
  Test system: "S. typhimurium/E. coli reverse mutation, colony counts"
  Category: "class 0"
